Value source: patent US20230271956A1

- Experimental target: human rec ACSS2 (Homo sapiens)
- Construct: myc (C)
- Sequence (Q9NR19 whole entry): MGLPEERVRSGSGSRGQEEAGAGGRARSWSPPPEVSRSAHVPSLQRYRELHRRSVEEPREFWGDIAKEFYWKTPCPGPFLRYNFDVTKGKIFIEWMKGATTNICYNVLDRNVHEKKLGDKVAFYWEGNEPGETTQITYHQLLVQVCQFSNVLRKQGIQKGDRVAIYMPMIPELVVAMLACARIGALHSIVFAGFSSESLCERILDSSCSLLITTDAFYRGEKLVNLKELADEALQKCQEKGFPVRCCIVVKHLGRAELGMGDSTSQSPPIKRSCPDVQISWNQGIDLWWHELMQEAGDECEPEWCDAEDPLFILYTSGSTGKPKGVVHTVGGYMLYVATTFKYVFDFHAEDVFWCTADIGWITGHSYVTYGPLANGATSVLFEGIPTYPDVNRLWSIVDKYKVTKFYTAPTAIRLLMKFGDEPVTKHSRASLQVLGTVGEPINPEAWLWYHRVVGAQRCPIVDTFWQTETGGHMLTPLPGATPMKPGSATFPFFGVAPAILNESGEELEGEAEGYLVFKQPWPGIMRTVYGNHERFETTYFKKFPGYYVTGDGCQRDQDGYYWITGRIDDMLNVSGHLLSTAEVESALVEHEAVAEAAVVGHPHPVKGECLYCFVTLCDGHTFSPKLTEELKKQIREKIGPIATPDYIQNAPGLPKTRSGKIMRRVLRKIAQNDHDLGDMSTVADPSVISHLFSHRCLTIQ
- Test description: Biochemical activity ACSS2 assay (AMP-Glo)
- Condition parameters: human recombinant ACSS2, AMP-Glo, 180 min at 37° C.
pIC50: −log10 of the molar value.
Reported property: pIC50

Inquiry: For the record `CCn1cnc(NC(=O)c2cc3c(nc2C)nc(C(O)(c2ccccc2F)c2ccccc2F)n3CC)n1` , what value of pIC50 is listed for human rec ACSS2 (Homo sapiens)?
Reply text: 8.00 to 9.00

Inquiry: Next entry: `CCn1c(C(O)(c2ccccc2)c2ccccc2)nc2nc(Cl)c(C(=O)Nc3cnn(CCOC)c3)cc21`
Reply text: 7.00 to 8.00

Inquiry: Same read-out for `CCn1c(C(O)(c2ccccc2)c2ccccc2)nc2nc(Cl)c(C(=O)Nc3cnn(CCO)c3)cc21` ?
Reply text: 5.00 to 7.00

Inquiry: Same question for CCn1cnc(NC(=O)c2cc3c(nc2OC)nc(C(O)(c2ccccc2F)c2ccc(OC(F)F)cc2F)n3CC)n1 (single isomer, unassigned) [Compound 71] please.
Reply text: 9.00 to 11.00

Inquiry: Would you mind doing CCn1cc(NC(=O)c2cc3c(nc2Cl)nc(C(O)(c2ccccc2)c2ccc(OC(F)F)cc2F)n3CC)cn1 (single isomer, unassigned) [Compound 74] as well?
Reply text: 8.00 to 9.00

Inquiry: Moving on to the next compound: CCn1cnc(NC(=O)c2cc3c(nc2OC)nc(C(O)(c2ccccc2)c2ccn(C)n2)n3CC)n1 (racemic)
Reply text: 7.00 to 8.00

Inquiry: `CCc1c(C(O)(c2ccccc2)c2ccccc2)nc2ccc(C(=O)Nc3cnn(CC)c3)cn12` ?
Reply text: 7.00 to 8.00

Inquiry: Now this one: CCc1c(C(O)(c2ccccc2)c2ccccn2)nc2cc(OC)c(C(=O)Nc3ncn(CC)n3)cn12 (racemic) [Compound 16]
Reply text: 7.00 to 8.00

Inquiry: Quick one: CCn1cnc(NC(=O)c2cc3c(nc2OC)nc(C(O)(c2ccccc2)c2ccccn2)n3CC)n1 (racemic) [Compound 69]
Reply text: 8.00 to 9.00

Inquiry: // repeat for `CCn1cnc(NC(=O)c2cc3c(nc2F)nc(C(O)(c2ccccc2F)c2ccccc2F)n3CC)n1` and report
Reply text: 8.00 to 9.00

Inquiry: Moving on to the next compound: CCc1c(C(O)(c2ccccc2)c2ccc(C)s2)nc2cc(OC)c(C(=O)Nc3ncn(CC)n3)cn12 (single isomer, unassigned) [Compound 26]
Reply text: 5.00 to 7.00

Inquiry: Similarly, `CCc1c(C(O)(c2ccccc2F)c2ccccc2F)nn2cc(OC)c(C(=O)Nc3cnn(CC)c3)cc12` ?
Reply text: 7.00 to 8.00

Inquiry: Item: `CCn1cc(NC(=O)c2cc3c(nc2OC)nc(C(O)(c2ccccc2)c2ccccc2)n3CC)cn1`
Reply text: 8.00 to 9.00

Inquiry: Another compound to look at: `CCc1c(C(O)(c2ccccc2F)c2ccccc2F)nn2cc(OC)c(C(=O)Nc3ncn(CC)n3)cc12`
Reply text: 8.00 to 9.00

Inquiry: Follow-up entry: `CCn1cc(NC(=O)c2cc3c(nc2F)nc(C(O)(c2ccccc2)c2ccccc2)n3CC)cn1`
Reply text: 7.00 to 8.00

Inquiry: Next up: `CCn1cc(NC(=O)c2cnc3nc(C(O)(c4ccccc4F)c4ccccc4F)n(CC)c3c2)cn1`
Reply text: 7.00 to 8.00

Inquiry: Same again, this time with `CCn1cnc(NC(=O)c2cc3c(nc2OC)nc(C(O)(c2ccsc2)c2ccsc2)n3CC)n1`
Reply text: 8.00 to 9.00

Inquiry: Moving on to the next compound: CCn1cc(NC(=O)c2cc3c(nc2Cl)nc(C(O)(c2ccccc2F)c2ccc(OC(F)F)cc2F)n3CC)cn1 (racemic)
Reply text: 8.00 to 9.00

Inquiry: Queued: CCn1cc(NC(=O)c2cc3c(nc2OC)nc(C(O)(c2ccccc2)c2ccc(OC(F)F)cc2F)n3CC)cn1 (racemic)
Reply text: 7.00 to 8.00

Inquiry: Another: CCn1cnc(NC(=O)c2cc3c(nc2OC)nc(C(O)(c2ccccc2)c2ccc(OC(F)F)cc2)n3CC)n1 (racemic) [Compound 86]
Reply text: 8.00 to 9.00

Inquiry: Same for `CCc1c(C(O)(c2ccccc2)c2ccccc2)nc2cc(F)c(C(=O)Nc3ncn(CC)n3)cn12`
Reply text: 8.00 to 9.00

Inquiry: Thanks! And CCc1c(C(O)(c2ccccc2)c2ccccn2)nc2cc(OC)c(C(=O)Nc3ncn(CC)n3)cn12 (single isomer, unassigned) [Compound 18] ?
Reply text: 5.00 to 7.00

Inquiry: Same question, `CCn1cc(NC(=O)c2cnc3nc(C(O)(c4ccccc4)c4ccccc4)n(C)c3c2)cn1` this time
Reply text: 7.00 to 8.00

Inquiry: Next: CCn1cnc(NC(=O)c2cc3c(nc2OC)nc(C(O)(c2ccccc2)c2ccsc2)n3CC)n1 (racemic)
Reply text: 8.00 to 9.00

Inquiry: Same question for `CCc1c(C(O)(c2ccccc2)c2ccccc2)nn2cc(Cl)c(C(=O)Nc3ncn(CC)n3)cc12` please.
Reply text: 9.00 to 11.00

Inquiry: Cool, now CCn1cnc(NC(=O)c2cc3c(nc2OC)nc(C(O)(c2ccccc2)c2ccccn2)n3CC)n1 (single isomer, unassigned) [Compound 53]
Reply text: 8.00 to 9.00

Inquiry: Please do the same for CCn1cc(NC(=O)c2cc3c(nc2Cl)nc(C(O)(c2ccccc2)c2ccc(OC(F)F)cc2)n3CC)cn1 (racemic) as well.
Reply text: 7.00 to 8.00

Inquiry: Note, next up: CCc1c(C(O)(c2ccccc2)c2ccn(C)n2)nc2cc(OC)c(C(=O)Nc3ncn(CC)n3)cn12 (single isomer, unassigned) [Compound 22]
Reply text: 7.00 to 8.00
